Ref: patent US9198916B1

# assay notes: Repeated dose intraperitoneal (IP) BID study in mice, plasma concentration by LC-MS/MS and PK fit
# Design: species or system female CD-1 mice
# protocol conditions: female, CD-1, mouse, in vivo, fitted, repeated-dose single-compartment first-order absorption model, 10 mg/kg IP BID, read-out: apparent volume of distribution (V/F)
# Description: A total of 204.47 mg of the compound of Example 1 was weighed out in a sterile vial on an analytical balance, and a 10.22 ml volume of sterile DMSO containing 5% by volume sterile Tween 80 was added to the vial under a Class II sterile hood and mixed until fully dissolved to produce a 20 mg/ml stock solution of the compound of Example 1. The stock solution was split into 1.2 ml aliquots in sterile glass vials and stored frozen at −80° C. […]

- compound: "CSc1ccc2c(c1)N(CCC1CCCCN1)c1ccccc1S2.Cl (stereo not shown)"
  Vd/F / L/kg: 8

---

# assay notes: Repeated dose intraperitoneal (IP) BID study in mice, plasma concentration by LC-MS/MS and PK fit
# Parameters: species or system female CD-1 mice
# protocol conditions: female, CD-1, mouse, in vivo, ip, 10 mg/kg, fitted, repeated-dose single-compartment first-order absorption model, 10 mg/kg IP BID, read-out: elimination half-life (converted)
# Protocol: A total of 204.47 mg of the compound of Example 1 was weighed out in a sterile vial on an analytical balance, and a 10.22 ml volume of sterile DMSO containing 5% by volume sterile Tween 80 was added to the vial under a Class II sterile hood and mixed until fully dissolved to produce a 20 mg/ml stock solution of the compound of Example 1. The stock solution was split into 1.2 ml aliquots in sterile glass vials and stored frozen at −80° C. […]
measured metric: half-life (h)

- compound: "CSc1ccc2c(c1)N(CCC1CCCCN1)c1ccccc1S2.Cl (stereo not shown)"
  recorded value: 14.7
